B1: library; numbered along this chain (parent)
chain: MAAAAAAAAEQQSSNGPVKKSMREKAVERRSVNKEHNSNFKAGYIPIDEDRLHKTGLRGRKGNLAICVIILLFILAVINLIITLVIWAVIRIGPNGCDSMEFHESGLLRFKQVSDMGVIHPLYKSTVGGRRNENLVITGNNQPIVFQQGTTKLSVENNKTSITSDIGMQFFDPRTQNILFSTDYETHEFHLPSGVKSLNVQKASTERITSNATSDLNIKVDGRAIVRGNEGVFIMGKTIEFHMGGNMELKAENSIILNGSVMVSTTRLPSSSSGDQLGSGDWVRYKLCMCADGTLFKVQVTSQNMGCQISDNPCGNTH

Variants of: B1
assay info: SGCB cell-surface expression functional score (HA stain, bin4 vs bin1, normalised to synonymous) (log10 ratio); higher = more cell-surface SGCB (functional)
Decide by SGCB cell-surface expression functional score (log10): equal to or exceeding -0.01 means true (1), less means false (0).

Solved cases (2 shown):
V263G
false (0)
C67T
false (0)

Q) Entry K202I : is its SGCB cell-surface expression functional score (log10) no less than -0.01?
A) false (0)

Q) Does R91C have a reported SGCB cell-surface expression functional score (log10) of at least -0.01?
A) false (0)

Q) # bool: SGCB cell-surface expression functional score (log10) of A65L >= -0.01
A) true (1)

Q) Reported SGCB cell-surface expression functional score (log10) at or above -0.01? H103W
A) true (1)

Q) SGCB cell-surface expression functional score (log10) >= -0.01 for K286R ?
A) false (0)

Q) Given R51K , state whether its SGCB cell-surface expression functional score (log10) is at least -0.01.
A) true (1)

Q) Is SGCB cell-surface expression functional score (log10) at least -0.01? Consider L122G
A) true (1)

Q) Quick check: does I208R have SGCB cell-surface expression functional score (log10) greater than or equal to -0.01?
A) false (0)

Q) hey, is SGCB cell-surface expression functional score (log10) for this one >= -0.01? S105D
A) true (1)

Q) Dear colleague, could you confirm whether P313A has SGCB cell-surface expression functional score (log10) at or above -0.01?
A) true (1)
